Biological target: T1, MHC class I allele A*0101 (bound via biotin to streptavidin-coated plate)
T1 construct: iTopia MHC class I monomer on the plate; placeholder peptide and b2M removed, then reconstituted with test peptide and fresh b2M; also called A1; HLA A1
Assay: iTopia peptide binding assay
Output: class label from % of positive control peptide binding. Mapping: low = under 1%, medium = from 1% up to 4%, high = 4% and over

Example entries and their recorded answers appear below.
>>> qualitative_label("LPSLRHLDL (also called Peptide No 117) [5T4 9 mer peptide 117 LPSLRHLDL]")
"low"
>>> qualitative_label("AGAFEHLPS (also called Peptide No 68) [5T4 9 mer peptide 68 AGAFEHLPS]")
"high"
>>> qualitative_label("EDERQNRSF (also called Peptide No 94) [5T4 9 mer peptide 94 EDERQNRSF]")
"low"
>>> qualitative_label("ECSEAARTV (also called Peptide No 34) [5T4 9 mer peptide 34 ECSEAARTV]")
"medium"
>>> qualitative_label("ILNHIVPPE (also called Peptide No 90) [5T4 9 mer peptide 90 ILNHIVPPE]")
"high"
>>> qualitative_label("VRNLFLTGN (also called Peptide No 47) [5T4 9 mer peptide 47 VRNLFLTGN]")
"low"
>>> qualitative_label("PPLAELAAL (also called Peptide No 58) [5T4 9 mer peptide 58 PPLAELAAL]")
"high"
>>> qualitative_label("LPRDVLAQL [5T4 9 mer peptide 113 LPRDVLAQL]")
"medium"

Enquiry: Using the reported % of positive control peptide binding, which band applies to LCECSEAAR (also called Peptide No 33) [5T4 9 mer peptide 33 LCECSEAAR] ?
Return: medium

Enquiry: Please report the category associated with TEVPTDLPA (also called Peptide No 42) [5T4 9 mer peptide 42 TEVPTDLPA] , nothing else.
Return: medium

Enquiry: Please classify: ASAVSAQPP (also called Peptide No 25) [5T4 9 mer peptide 25 ASAVSAQPP]
Return: medium

Enquiry: Lab log: RQLDLSHNP (also called Peptide No 73) [5T4 9 mer peptide 73 RQLDLSHNP] — assign % of positive control peptide binding category
Return: medium

Enquiry: Which bin should I file VVAALLAGR (also called Peptide No 100) [5T4 9 mer peptide 100 VVAALLAGR] under?
Return: high

Enquiry: Just checking, what class would you give AGRALQGLR (also called Peptide No 103) [5T4 9 mer peptide 103 AGRALQGLR] here?
Return: low

Enquiry: // bin(item) where item = GAFARRPPL (also called Peptide No 55) [5T4 9 mer peptide 55 GAFARRPPL]
Return: low

Enquiry: Quick check: band for DEVRAGAFE (also called Peptide No 66) [5T4 9 mer peptide 66 DEVRAGAFE]
Return: high

Enquiry: Just checking, what class would you give RTVKCVNRN (also called Peptide No 37) [5T4 9 mer peptide 37 RTVKCVNRN] here?
Return: high

Enquiry: Band of RLRLARLAL (also called Peptide No 8) [5T4 9 mer peptide 8 RLRLARLAL] ?
Return: medium

These entries and their values trace back to patent US20090280138A1.
